IC50 by entry:
target: Rat recombinant PDE10A (rPDE10A2) (Rattus norvegicus, UniProt Q9QYJ6); construct: made in house; host or cells: Sf9 insect cells (baculovirus); assay: In vitro assay PDE10A (SPA, 3H-cAMP); format: biochemical; details: read-out: PIC50 PDE10 (converted)
Sequence (Q9QYJ6 whole entry): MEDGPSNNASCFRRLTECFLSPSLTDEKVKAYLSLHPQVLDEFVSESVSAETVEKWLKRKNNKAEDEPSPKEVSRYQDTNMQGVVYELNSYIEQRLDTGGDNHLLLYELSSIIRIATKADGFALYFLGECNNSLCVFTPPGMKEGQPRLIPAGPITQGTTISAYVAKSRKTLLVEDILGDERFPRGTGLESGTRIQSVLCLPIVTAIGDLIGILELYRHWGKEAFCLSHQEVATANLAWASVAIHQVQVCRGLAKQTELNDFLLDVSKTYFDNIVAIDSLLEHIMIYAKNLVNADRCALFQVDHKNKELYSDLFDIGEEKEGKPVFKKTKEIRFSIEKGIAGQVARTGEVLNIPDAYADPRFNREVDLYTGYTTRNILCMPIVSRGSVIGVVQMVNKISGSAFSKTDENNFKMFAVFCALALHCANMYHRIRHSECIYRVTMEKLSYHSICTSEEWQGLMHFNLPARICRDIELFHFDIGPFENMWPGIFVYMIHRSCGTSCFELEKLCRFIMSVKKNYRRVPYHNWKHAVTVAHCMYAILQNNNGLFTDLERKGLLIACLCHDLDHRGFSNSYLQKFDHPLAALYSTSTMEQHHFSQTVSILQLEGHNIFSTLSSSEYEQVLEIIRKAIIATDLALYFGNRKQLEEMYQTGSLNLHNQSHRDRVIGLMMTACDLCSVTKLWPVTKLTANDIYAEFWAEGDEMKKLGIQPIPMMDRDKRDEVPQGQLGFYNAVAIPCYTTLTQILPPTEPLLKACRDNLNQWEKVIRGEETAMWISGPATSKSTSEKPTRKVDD

{"MOLECULE": "CCCCOc1ccc(F)c(-c2nnc3c(C)nc4ccc(C#N)cc4n23)c1", "IC50": "3550 nM"}
{"MOLECULE": "CCCOc1ccc(Cl)c(-c2nnc3c(C)nc4ccc(Br)cc4n23)c1", "IC50": "468 nM"}
{"MOLECULE": "Cc1nc2ccc(Oc3ccncc3)cc2n2c(-c3ccccc3Cl)nnc12", "IC50": "24.5 nM"}
{"MOLECULE": "CCCCOc1ccc(Cl)c(-c2nnc3c(C)nc4ccc(CN5CCC(O)CC5)cc4n23)c1", "IC50": "1450 nM"}
{"MOLECULE": "Cc1nc2ccc(NCCN3CCOCC3)cc2n2c(-c3ccccc3Cl)nnc12", "IC50": "19.1 nM"}
{"MOLECULE": "COC1CCCN(Cc2ccc3nc(C)c4nnc(-c5ccccc5Cl)n4c3c2)C1 (centres unmarked)", "IC50": "38 nM"}
{"MOLECULE": "Cc1nc2ccc(OCCc3ccccn3)cc2n2c(-c3ccccc3Cl)nnc12", "IC50": "16.2 nM"}
{"MOLECULE": "Cc1nc2ccc(OC(C)(F)F)cc2n2c(-c3ccccc3Cl)nnc12", "IC50": "15.5 nM"}
